Molecular target: Muscarinic acetylcholine receptor M5 (Homo sapiens, UniProt P08912)
Sequence (P08912 whole entry): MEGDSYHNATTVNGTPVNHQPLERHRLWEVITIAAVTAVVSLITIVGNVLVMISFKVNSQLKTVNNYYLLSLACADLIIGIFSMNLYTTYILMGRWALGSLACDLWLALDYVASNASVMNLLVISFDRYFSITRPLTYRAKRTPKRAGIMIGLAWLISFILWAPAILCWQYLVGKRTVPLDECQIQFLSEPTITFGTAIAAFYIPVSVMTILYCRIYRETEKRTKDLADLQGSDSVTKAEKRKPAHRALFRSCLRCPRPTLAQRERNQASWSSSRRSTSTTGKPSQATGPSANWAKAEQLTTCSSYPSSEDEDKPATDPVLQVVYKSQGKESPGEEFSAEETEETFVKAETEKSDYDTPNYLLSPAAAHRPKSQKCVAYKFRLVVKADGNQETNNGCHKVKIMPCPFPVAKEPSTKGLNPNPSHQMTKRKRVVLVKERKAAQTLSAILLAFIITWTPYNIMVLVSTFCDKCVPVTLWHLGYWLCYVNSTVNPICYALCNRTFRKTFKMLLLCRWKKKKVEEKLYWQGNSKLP
Assay: Antagonist activity at human muscarinic M5 receptor expressed in CHO cells in the presence of acetylcholine by calcium mobilisation assay
Each item that follows carries a reported pIC50.
By convention, pIC50 is the negative base-10 log of a molar concentration.

The following compounds have reported results that may help.
C[C@H]1CN(S(=O)(=O)c2ccc3c(c2)CCO3)C[C@@H]1C(=O)Nc1ccc2scnc2c1 = 7.06
O=C(Nc1ccc2scnc2c1)[C@H]1CCN(S(=O)(=O)c2ccc3c(c2)CCO3)C1 = 6.36
C[C@@H]1CN(S(=O)(=O)c2ccc3c(c2)CCO3)C[C@@H]1C(=O)Nc1ccc2scnc2c1 = 7.46

Alright, here's another compound for you.
QUERY: Tell me measured pIC50 for O=C(Nc1ccc2scnc2c1)C12CC1CN(S(=O)(=O)c1ccc3c(c1)CCO3)C2 (racemic) please.
RESULT: 6.57
